Target: T1, APC2405-AA
T1 chain: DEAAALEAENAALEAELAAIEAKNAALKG
Assay: two-hybrid library CCmax;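 note: natural log of median RNA to DNA barcode read ratio; higher means stronger binding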
Conditions: mean of both orientations
metric_name: interaction score

Here's what some known entries look like.
binder	interaction score
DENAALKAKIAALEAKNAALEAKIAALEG [4H1845-AA]	-1.12
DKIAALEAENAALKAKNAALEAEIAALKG [4H2290-AA]	-1.42
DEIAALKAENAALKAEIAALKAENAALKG [4H716-AA]	-1
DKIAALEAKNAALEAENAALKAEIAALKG [4H2458-AA]	-1.59
DKLAAIKAENAALEAKAAALKAENAALEG [APC1434-AA]	-1.36
DEAAALEAEAAALEAKAAALKAKLAAEKG [APC2237-AA]	-1.48
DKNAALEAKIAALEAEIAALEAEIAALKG [4H3330-AA]	-1.07
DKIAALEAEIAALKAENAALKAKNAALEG [4H2143-AA]	-1.48
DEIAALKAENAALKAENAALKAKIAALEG [4H733-AA]	-1.28
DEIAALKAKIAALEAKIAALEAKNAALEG [4H807-AA]	-1.49

A: DELAAIEAEAAALEAKAAALKAEAAALEG [APC232-AA]
B: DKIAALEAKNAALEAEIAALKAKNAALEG [4H2447-AA]
Select the item with the higher value of interaction score from the options A and B listed. Return value: the label identifying the chosen record.
B

Values from paper PMC10397247
